MEASUREMENT TARGET: Cad1 (UniProt P24813)
Sequence: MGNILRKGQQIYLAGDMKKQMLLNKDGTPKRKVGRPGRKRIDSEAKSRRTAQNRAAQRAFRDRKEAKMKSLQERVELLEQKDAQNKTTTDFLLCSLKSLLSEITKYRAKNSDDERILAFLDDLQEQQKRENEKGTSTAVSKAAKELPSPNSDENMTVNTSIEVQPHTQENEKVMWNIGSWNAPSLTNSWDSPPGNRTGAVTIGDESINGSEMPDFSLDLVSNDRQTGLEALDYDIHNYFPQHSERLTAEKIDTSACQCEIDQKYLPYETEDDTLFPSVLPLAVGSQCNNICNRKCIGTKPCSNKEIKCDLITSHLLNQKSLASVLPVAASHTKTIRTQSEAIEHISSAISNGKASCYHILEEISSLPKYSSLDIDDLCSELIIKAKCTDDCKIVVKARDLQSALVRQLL
TEST: PBM E-score (8-mer binding enrichment) (E-score (-0.5 to 0.5)); higher = stronger / more preferred TF binding
MEASUREMENT CONTEXT: protein concentration: 100 nM; construct: GST-full length
The full ranking holds about 33,000 sequences; the median of “E-score (-0.5 to 0.5)” is about -0.0014, and the highest 2% start at about 0.25. For the sample, the highest values were picked, then their nearest neighbours and some sequences at random.
Below, each entry is listed alongside its reported PBM E-score.
Please reply with the number alone, leaving off any unit.

Record excerpt, results attached:
SEQUENCE TEXT: CTTACAAA
PBM E-score: 0.372
--
SEQUENCE TEXT: TAGGTCGA
PBM E-score: 0.131
--
SEQUENCE TEXT: AAAGCCTC
PBM E-score: -0.186
--
SEQUENCE TEXT: ATTACAAT
PBM E-score: 0.104

[ask] Item ATTGTCAG has what recorded PBM E-score?
[reply] 0.306

[ask] Same lookup for CTATTACC , please.
[reply] -0.0596

[ask] Same lookup for CAACCGCA , please.
[reply] 0.066

[ask] Same lookup for ATATTACC , please.
[reply] 0.28

[ask] Same lookup for TGAGCGAA , please.
[reply] 0.123

[ask] Same lookup for AGAAGGTA , please.
[reply] 0.103

[ask] Same lookup for TGGAACAA , please.
[reply] 0.144

[ask] Same lookup for CTTACAAC , please.
[reply] 0.118

# credit: the supplement of paper PMC3334620
